Each item that follows carries a reported exon inclusion enrichment index.
B1: mRNA-splicing (parent)
chain: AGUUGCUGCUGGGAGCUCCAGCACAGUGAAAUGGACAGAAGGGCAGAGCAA

- Variants of: B1
- measurement-notes: exon inclusion enrichment index; higher = more inclusion; WT1 exon 5 minigene, HEK293
Returns: the value as a bare number; no unit string appended.

Previously resolved entries follow.
mutation-notation | recorded-result
G5C C6A G8U C9U | 0.42
C6A U7C C9A U10C G46C | 2.33
G5U G8U C9U U27G | 0.0266
G5C C6A U7C G8A U10A A23G C24U | 0.0154
G5A C6G U7G C9A G34C A35C | 0.00219
C6A U7C C9A U10C G43C C44A | 3.8
G5C C6G U7C U10C G42A G43C | 5.39
G5C C6U G8C C9U U10C A14G G15U | 0.546

Record request: exon inclusion enrichment index value, item C6A U7A C9A U10A C44A A45U
1.71

Next entry: C6A U7A C9A U10A A23C
0.443

Next entry: G5C C6G U7C U10C A14U G15A
1.41
